Reported values of GI50 for individual entries
System: CAKI-1
assayNotes: NCI tumour cell line growth inhibition, 48 h
Active and inactive are the calls of the source. Cut-off read from the data, not from the text of the source: active = GI50 up to about 1.1 µM and inactive = higher.
attributeMeasured: GI50

| molecule | experimentalValue |
| --- | --- |
| COC1(C)CP(=O)(OC(C)C)CC(C)=C1Cl (stereo unspecified) | 17 µM (inactive) |
| O=C(O)CCNS(=O)(=O)c1ccc2ccccc2c1 | > 100 µM (inactive) |
| CCOC1OCCCC1Br (stereo unspecified) | > 100 µM (inactive) |
| CCCCCCCCCC(O)CC(=O)c1c(O)cccc1O (stereo unspecified) | 21.7 µM (inactive) |
| [O-][N+]1=C(c2ccccc2)COc2ccccc21 | > 100 µM (inactive) |
| O=C1NC(=S)N(c2cccc3ccccc23)C(=O)/C1=C/c1c[nH]c2ccccc12 | 2.54 µM (inactive) |
